Biological target: kinase domain of BMX (Homo sapiens)
Construct: The kinase domains of JAK3 and BMX at 2 μM
Sequence (P51813 417-675 limits assumed): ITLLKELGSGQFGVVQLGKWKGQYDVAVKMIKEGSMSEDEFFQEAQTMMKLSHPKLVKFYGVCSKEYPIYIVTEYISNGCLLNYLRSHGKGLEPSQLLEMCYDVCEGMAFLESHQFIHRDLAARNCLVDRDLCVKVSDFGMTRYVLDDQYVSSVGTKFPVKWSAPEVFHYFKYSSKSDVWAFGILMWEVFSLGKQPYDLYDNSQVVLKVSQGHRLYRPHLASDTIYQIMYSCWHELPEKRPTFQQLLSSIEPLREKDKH
Test: Mass spectrometric investigation of covalent binding to BMX (ESI-TOF)
Conditions: 1.5-fold molar excess of inhibitor, 4 °C, 60 min
property.measured: native (unmodified) BMX fraction, 60 min (%)

Record excerpt, results attached:
CCC(=O)Nc1cccc(-c2c[nH]c3ncc(NC(=O)C4CCCC4)cc23)c1 [Compound 12b]; 100
CCC(=O)Nc1cccc(-c2c[nH]c3ncc(C(N)=O)cc23)c1 [Compound 10b]; 100
CCC(=O)Nc1cccc(-c2c[nH]c3ncccc23)c1 [Compound 9b]; 100

a = CCC(=O)Nc1cccc(-c2c[nH]c3ncc(C(=O)NC4CCCC4)cc23)c1 [Compound 11b]
b = C=CC(=O)Nc1cccc(-c2c[nH]c3ncc(C(=O)NC4CCCC4)cc23)c1 [Compound 11a]
// pick larger native (unmodified) BMX fraction, 60 min from pair: a vs b Kindly state the label of the option you pick. a

* * *

Molecular target: BTK (Homo sapiens)
Sequence (Q06187 whole entry): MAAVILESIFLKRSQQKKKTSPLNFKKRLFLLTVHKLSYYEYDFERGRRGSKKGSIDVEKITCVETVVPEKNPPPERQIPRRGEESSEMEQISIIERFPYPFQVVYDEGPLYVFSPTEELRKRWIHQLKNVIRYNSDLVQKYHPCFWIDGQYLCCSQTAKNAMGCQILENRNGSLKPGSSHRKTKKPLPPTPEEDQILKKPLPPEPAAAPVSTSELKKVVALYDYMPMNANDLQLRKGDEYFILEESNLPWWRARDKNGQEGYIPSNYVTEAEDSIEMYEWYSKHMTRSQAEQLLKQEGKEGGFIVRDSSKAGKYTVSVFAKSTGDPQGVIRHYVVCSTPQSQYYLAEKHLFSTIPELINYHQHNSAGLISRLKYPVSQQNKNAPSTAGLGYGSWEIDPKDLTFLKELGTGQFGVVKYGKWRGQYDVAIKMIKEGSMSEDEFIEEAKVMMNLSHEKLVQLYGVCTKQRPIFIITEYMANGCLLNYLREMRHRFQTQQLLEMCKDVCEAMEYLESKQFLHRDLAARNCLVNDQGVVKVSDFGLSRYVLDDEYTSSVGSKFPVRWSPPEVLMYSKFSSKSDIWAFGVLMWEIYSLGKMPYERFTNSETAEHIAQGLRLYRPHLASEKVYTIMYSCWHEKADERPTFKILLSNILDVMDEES
property.measured: IC50

Give BTK (Homo sapiens) IC50 for the following compound: C=CC(=O)Nc1cccc(-c2c[nH]c3ncc(NC(=O)c4cccs4)cc23)c1 [Compound 12c] < 1 nM

* * *

Biological target: Full length BTK (C-terminal NanoLuc fusion) (Homo sapiens, UniProt Q06187)
Construct: Full length BMX and BTK was cloned into pFC32K; expressed in transfected cells; host or cells: HEK293T
Sequence (Q06187 whole entry, the tested form may be a part): as the sequence (Q06187 whole entry) above
Assay: Cellular NanoBRET target engagement assay in HEK293T cells
Type: cell-based
Conditions: 0.5 µM Tracer K5, 2 h incubation
pIC50: −log10 of the molar value.
property.measured: pIC50

CCC(=O)Nc1cccc(-c2c[nH]c3ncc(NC(=O)C4CCCC4)cc23)c1 [Compound 12b]; 5.09
C=CC(=O)Nc1cccc(-c2c[nH]c3ncc(NC(=O)c4cccs4)cc23)c1 [Compound 12c]; 8.05
C=CC(=O)Nc1cccc(-c2c[nH]c3ncc(NC(=O)CC4CCCC4)cc23)c1 [Compound 12g]; 7.89

I = CCC(=O)Nc1cccc(-c2c[nH]c3ncc(C(=O)NC4CCCC4)cc23)c1 [Compound 11b]
II = C=CC(=O)Nc1cccc(-c2c[nH]c3ncc(C(N)=O)cc23)c1 [Compound 10a]
Between the two listed entries I and II , which has its pIC50 at the higher number? Reply with the label of the item you choose. II
(II: 6.55, I: 5.43)

* * *

Biological target: kinase domain of BMX (Homo sapiens)
Construct: The kinase domains of JAK3 and BMX at 2 μM
Assay: Thermal shift (ΔTm) assay
Type: binding
Details: 2 μM kinase domain, 10 μM inhibitor; mean ± SD of at least three measurements
property.measured: ΔTm at 10 µM (°C)

The following compounds have reported results that may help.
C=CC(=O)Nc1cccc(-c2c[nH]c3ncc(NC(=O)c4ccccc4)cc23)c1 [Compound 12e]; 11.4
C=CC(=O)Nc1cccc(-c2c[nH]c3ncc(C(=O)NCC)cc23)c1 [Compound 11d]; 7.35
C=CC(=O)Nc1cccc(-c2c[nH]c3ncc(C(=O)NC)cc23)c1 [Compound 11c]; 7.84
C=CC(=O)Nc1cccc(-c2c[nH]c3ncc(NC(=O)c4ccco4)cc23)c1 [Compound 12d]; 10.8

I = C=CC(=O)Nc1cccc(-c2c[nH]c3ncc(C(=O)NCc4ccccc4)cc23)c1 [Compound 11g]
II = C=CC(=O)Nc1cccc(-c2c[nH]c3ncc(NC(=O)c4cccs4)cc23)c1 [Compound 12c]
III = C=CC(=O)Nc1cccc(-c2c[nH]c3ncc(C(=O)NCC4CCCCC4)cc23)c1 [Compound 11f]
Arrange by ΔTm at 10 µM, high to low. Answer by naming the labels in the order asked. II, I, III

a = C=CC(=O)Nc1cccc(-c2c[nH]c3ncc(C(=O)NCC4CC4)cc23)c1 [Compound 11e]
b = C=CC(=O)Nc1cccc(-c2c[nH]c3ncc(C(N)=O)cc23)c1 [Compound 10a]
Form field 'greater ΔTm at 10 µM' accepts a or b ; which applies? Selection: enter the item's label. b
(b: 10.5 °C, a: 6.94 °C)

A = C=CC(=O)Nc1cccc(-c2c[nH]c3ncc(C(=O)NC4CCCC4)cc23)c1 [Compound 11a]
B = C=CC(=O)Nc1cccc(-c2c[nH]c3ncc(NC(=O)Cc4ccccc4)cc23)c1 [Compound 12h]
Which entry shows the lesser value of ΔTm at 10 µM here, A or B ? Give the label under which the chosen entry appears. A
